Biological target: FGFR1 (UniProt P11362)
Sequence (P11362 whole entry, looked up): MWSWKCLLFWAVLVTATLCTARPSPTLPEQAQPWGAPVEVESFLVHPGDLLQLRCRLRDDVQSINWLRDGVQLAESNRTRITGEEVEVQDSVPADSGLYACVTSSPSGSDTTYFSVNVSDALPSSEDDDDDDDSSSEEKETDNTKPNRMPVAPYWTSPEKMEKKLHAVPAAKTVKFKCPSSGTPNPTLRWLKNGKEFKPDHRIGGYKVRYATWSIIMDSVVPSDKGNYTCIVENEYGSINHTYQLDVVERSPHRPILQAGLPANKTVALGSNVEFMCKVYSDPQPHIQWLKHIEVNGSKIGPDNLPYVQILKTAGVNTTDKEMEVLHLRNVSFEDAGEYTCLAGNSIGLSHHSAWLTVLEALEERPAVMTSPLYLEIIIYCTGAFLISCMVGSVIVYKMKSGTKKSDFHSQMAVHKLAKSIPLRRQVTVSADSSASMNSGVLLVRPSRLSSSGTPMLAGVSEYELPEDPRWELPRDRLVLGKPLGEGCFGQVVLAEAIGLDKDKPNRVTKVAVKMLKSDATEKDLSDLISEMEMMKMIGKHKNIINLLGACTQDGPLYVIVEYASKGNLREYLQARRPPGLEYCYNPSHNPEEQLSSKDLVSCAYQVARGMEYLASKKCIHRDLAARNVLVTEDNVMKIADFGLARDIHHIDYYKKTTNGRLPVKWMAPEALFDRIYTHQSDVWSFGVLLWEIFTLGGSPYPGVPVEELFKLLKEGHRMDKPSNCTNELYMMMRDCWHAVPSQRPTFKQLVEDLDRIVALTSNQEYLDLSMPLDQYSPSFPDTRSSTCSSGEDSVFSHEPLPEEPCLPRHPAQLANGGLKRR
Test: phosphorylation enrichment, bacterial display (enrichment ratio); higher = better substrate or ligand; peptides without Tyr show the background
# if value of phosphorylation enrichment reaches 0.6, tag 1; if it stays below, tag -1

Below are worked cases with known answers.
chain	answerLabel
AAAAVYTFLPD [MYORG_Y36_M35V]	1
NFRTTCVNANE [KCNH2_Y475_Y475C]	-1
GYQPDYGQPAG [SYP_Y278]	-1
TEIGQYGNGLK [MORC2_Y100_Q96E]	-1

In: Say whether HCFAAYFQQGD [GPI_Y351_R347C] shows phosphorylation enrichment of 0.6 or more.
Out: 1

In: Say whether PMQMPYDSRWE [PDGFRA_Y582_L580M] shows phosphorylation enrichment of 0.6 or more.
Out: 1

In: Say whether LDVGEYCVPRG [BEX1_Y43_A40V] shows phosphorylation enrichment of 0.6 or more.
Out: 1

In: Say whether GNYSGYDDAWD [POLR1C_Y36] shows phosphorylation enrichment of 0.6 or more.
Out: 1

In: Say whether IYHLSYHHNCE [PDE6B_Y227_L228H] shows phosphorylation enrichment of 0.6 or more.
Out: 1

In: Say whether VATRWYRSLEL [CDKL5_Y177_P180L] shows phosphorylation enrichment of 0.6 or more.
Out: -1

In: Say whether CRIELYRVVES [IGFBP1_Y181] shows phosphorylation enrichment of 0.6 or more.
Out: -1

In: Say whether KKFVPYYDLFM [IPO5_Y530_E525K] shows phosphorylation enrichment of 0.6 or more.
Out: 1

In: Say whether SVVVPDEPPEV [TP53_Y220_Y220D] shows phosphorylation enrichment of 0.6 or more.
Out: 1

In: Say whether CTTIHYNYMCN [TP53_Y234] shows phosphorylation enrichment of 0.6 or more.
Out: -1

In: Say whether CRWKRYQCSHD [GDPD5_Y30_R32C] shows phosphorylation enrichment of 0.6 or more.
Out: -1

====

Molecular target: EPHB2 (UniProt P29323)
Sequence (P29323 whole entry, looked up): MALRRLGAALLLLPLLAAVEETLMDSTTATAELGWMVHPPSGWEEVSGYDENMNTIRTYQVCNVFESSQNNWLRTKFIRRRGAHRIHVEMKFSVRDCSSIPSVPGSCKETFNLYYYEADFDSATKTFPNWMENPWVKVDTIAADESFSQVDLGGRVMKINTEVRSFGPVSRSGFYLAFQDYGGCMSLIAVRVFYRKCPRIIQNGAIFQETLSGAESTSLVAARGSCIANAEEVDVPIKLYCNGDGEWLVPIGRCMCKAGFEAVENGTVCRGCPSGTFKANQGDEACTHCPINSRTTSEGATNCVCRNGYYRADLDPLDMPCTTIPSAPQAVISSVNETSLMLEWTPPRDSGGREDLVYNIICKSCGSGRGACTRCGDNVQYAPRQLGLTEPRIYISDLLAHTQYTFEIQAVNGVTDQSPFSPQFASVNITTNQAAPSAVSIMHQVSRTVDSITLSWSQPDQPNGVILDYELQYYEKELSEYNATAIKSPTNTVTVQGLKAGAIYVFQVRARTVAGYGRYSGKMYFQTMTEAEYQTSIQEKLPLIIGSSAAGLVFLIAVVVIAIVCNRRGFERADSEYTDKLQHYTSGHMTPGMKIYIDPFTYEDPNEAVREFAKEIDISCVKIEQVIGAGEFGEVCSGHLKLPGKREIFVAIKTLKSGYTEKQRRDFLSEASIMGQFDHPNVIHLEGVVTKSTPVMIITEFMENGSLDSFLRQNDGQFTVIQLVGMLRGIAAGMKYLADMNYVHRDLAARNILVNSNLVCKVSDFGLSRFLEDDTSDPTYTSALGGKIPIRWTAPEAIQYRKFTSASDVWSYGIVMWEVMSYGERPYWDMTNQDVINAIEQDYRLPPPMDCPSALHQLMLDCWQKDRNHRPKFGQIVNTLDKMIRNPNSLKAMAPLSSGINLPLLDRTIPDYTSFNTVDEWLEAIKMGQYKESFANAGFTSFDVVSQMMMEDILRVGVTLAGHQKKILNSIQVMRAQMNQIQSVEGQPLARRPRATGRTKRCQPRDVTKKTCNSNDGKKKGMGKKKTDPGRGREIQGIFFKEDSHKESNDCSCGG
Experiment: phosphorylation enrichment, bacterial display (enrichment ratio); higher = better substrate or ligand; peptides without Tyr show the background
# if value of phosphorylation enrichment reaches 0.5, tag 1.0; if it stays below, tag 0.0

Below are worked cases with known answers.
chain	systemUnderTest	answerLabel
FPDFVYKCIKA [DPYSL2_Y479_R481C]	EPHB2 (UniProt P29323)	1.0
TIAIRYSHSRR [ACOXL_Y260]	EPHB2 (UniProt P29323)	1.0
FPPTHYIRRMP [SLC4A11_Y820_V824M_YF]	EPHB2 (UniProt P29323)	1.0
PVQDAYQKVVA [HBB_Y131_A129D]	EPHB2 (UniProt P29323)	0.0
QLYGAYLRIHA [BSCL2_Y213]	EPHB2 (UniProt P29323)	1.0

In: Say whether RSGIFYKPESL [L2HGDH_Y103_H98R_YF] shows phosphorylation enrichment of 0.5 or more.
Out: 1.0

In: Say whether SSWKLYPRMLR [HAO1_Y50_R46S] shows phosphorylation enrichment of 0.5 or more.
Out: 0.0

====

Target: SHP2-C SH2;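 also: peptide library displayed on the E. coli surface as eCPX fusions, selected cells deep-sequenced, score is each peptide's frequency after selection divided by its frequency in the input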
Assay: SH2 binding enrichment of the phosphorylated peptide, bacterial display (enrichment ratio); higher = better substrate or ligand; peptides without Tyr show the background
measureName: SH2 binding enrichment
Returns: the value as a bare number; no unit string appended.

chain	SH2 binding enrichment
STGWSYAGVAV [KLHL3_Y577_R575W]	0.965
HSRTRYERNIE [F2_Y434]	1.37
EAEPYYCSLRD [NPHS1_Y1139_R1140C]	0.908
LNSFIYSLRNR [OR1A1_Y288_P285S]	0.578
MCTVDYLLRLQ [RYR1_Y3921_I3916M]	0.765
IDDLEYLHSQG [STK11_Y166_G163D]	0.57

We next turn to a different sequence, shown below.
In: Indicate its recorded SH2 binding enrichment; the sequence in question is ALVLQYLRVPL [F9_Y371]
Out: 1.74
